test system: RARg:RXRa (NR concentration 270 nM, RXRa partner concentration 90 nM); assay: PBM binding z-score (relative to random genomic background probes); higher = stronger binding; sequences stand for … in GC…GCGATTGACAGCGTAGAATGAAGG
Recorded PBM binding z-score split into classes interval 1 (below 0.6), interval 2 (0.6 to below 3), interval 3 (3 or more)

TCTCGGAGGACACGAAGGTCAGAGCCTTCCAGAG ... interval 3

Record AGAATGAGGTTATACGTAGATCAGGGCAGAAAGT — which class?
interval 2

// query: CCGACTGGGGCGAAGGTTACCATACTCAGTACGA
interval 2

// query: CCTACTGAGCCAAAGGTCATTGATTCCAATGCTC
interval 3

// query: AGAACGAGGGCAATGATTTGATAGCACGGGTGGC
interval 2

// query: CCGAGTACGTTATGGGGCATTCAGGCAACGGTGA
interval 1

// query: TAGCCTAGGTCATTCAGGGGCCATTATAGAAAGC
interval 3

Values compiled from the supplement of paper PMC6555819.
